# ASSAY_SUMMARY: total protein half-life in vivo (active degradation + dilution); higher = more stable protein
# ASSAY_CONDITIONS: wild type E. coli NCM3722; growth: C-lim chemostat; doubling time 12 h
Reported values of total protein half-life in vivo for individual entries

{"columns": ["SEQ", "UNIT_TAG", "total protein half-life in vivo"],
 "data": [
  ["MANNTTGFTRIIKAAGYSWKGLRAAWINEAAFRQEGVAVLLAVVIACWLDVDAITRVLLISSVMLVMIVEILNSAIEAVVDRIGSEYHELSGRAKDMGSAAVLIAIIVAVITWCILLWSHFG [P0ABN1]", "h", 13.3],
  ["MTQGAVKTTGKRSRAVSAKKKAILSAALDTFSQFGFHGTRLEQIAELAGVSKTNLLYYFPSKEALYIAVLRQILDIWLAPLKAFREDFAPLAAIKEYIRLKLEVSRDYPQASRLFCMEMLAGAPLLMDELTGDLKALIDEKSALIAGWVKSGKLAPIDPQHLIFMIWASTQHYADFAPQVEAVTGATLRDEVFFNQTVENVQRIIIEGIRPR [P0ACU2]", "h", 12.1],
  ["MDHRLLEIIACPVCNGKLWYNQEKQELICKLDNLAFPLRDGIPVLLETEARVLTADESKS [P0AAZ7]", "h", 8.88],
  ["MAFKIWQIGLHLQQQEAVAVAIVRGAKECFLQRWWRLPLENDIIKDGRIVDAQQLAKTLLPWSRELPQRHHIMLAFPASRTLQRSFPRPSMSLGEREQTAWLSGTMARELDMDPDSLRFDYSEDSLSPAYNVTAAQSKELATLLTLAERLRVHVSAITPDASALQRFLPFLPSHQQCLAWRDNEQWLWATRYSWGRKLAVGMTSAKELAAALSVDPESVAICGEGGFDPWEAVSVRQPPLPPPGGDFAIALGLALGKAY", "h", 11.7]
]}
